Assayed System: human plasmin (Homo sapiens)
Sequence (P00747 581-810 limits assumed): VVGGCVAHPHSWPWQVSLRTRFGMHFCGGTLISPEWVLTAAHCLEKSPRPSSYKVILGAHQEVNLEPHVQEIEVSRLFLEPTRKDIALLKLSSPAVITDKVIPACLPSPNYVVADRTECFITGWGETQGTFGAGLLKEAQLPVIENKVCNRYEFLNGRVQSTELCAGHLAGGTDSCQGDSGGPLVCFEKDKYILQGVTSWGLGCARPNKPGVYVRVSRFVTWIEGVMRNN
Sequence (P00747 97-580 partner limits assumed): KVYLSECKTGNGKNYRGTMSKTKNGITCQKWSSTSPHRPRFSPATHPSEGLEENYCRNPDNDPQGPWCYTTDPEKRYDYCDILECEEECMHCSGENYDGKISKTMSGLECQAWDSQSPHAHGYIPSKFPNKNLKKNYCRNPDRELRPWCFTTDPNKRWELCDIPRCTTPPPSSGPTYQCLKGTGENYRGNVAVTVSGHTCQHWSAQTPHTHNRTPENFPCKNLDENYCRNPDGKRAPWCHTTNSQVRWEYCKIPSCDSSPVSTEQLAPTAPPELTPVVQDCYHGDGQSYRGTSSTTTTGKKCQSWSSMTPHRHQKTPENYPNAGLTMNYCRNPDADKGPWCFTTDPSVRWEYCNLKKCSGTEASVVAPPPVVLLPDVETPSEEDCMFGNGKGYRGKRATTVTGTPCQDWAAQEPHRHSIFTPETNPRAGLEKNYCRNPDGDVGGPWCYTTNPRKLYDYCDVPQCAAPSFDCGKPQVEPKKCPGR
Assay Remarks: biochemical
Particulars: Table 2; 50% inhibition concentration, S-2251 substrate, pH 7.4, 37° C.; read-out: Plasmin S-2251 (I50)
Property Label: IC50 (µM)
# number only, unit µM dropped from output

As a guide, the following entries are already answered.
- CCOC(=O)C1CCCC(NC(=O)[C@H](Cc2ccc(OCc3cccc(Cl)c3)cc2)NC(=O)[C@H]2CC[C@H](CN)CC2)C1 (stereo partly shown): 1.7
- CCOC(=O)C1CCCC(NC(=O)[C@H](Cc2ccc(OCc3ccc(F)cc3)cc2)NC(=O)c2ccc(CN)cc2)C1 (stereo partly shown): 4.2
- CCOC(=O)C1CCCC(NC(=O)[C@H](Cc2ccc(OCc3cccc(Cl)c3)cc2)NC(=O)c2ccc(CN)cc2)C1 (stereo partly shown): 2.1

Q: Could you tell me which IC50 is on file for CC1CCCC(NC(=O)[C@H](Cc2ccc(OCc3ccccc3)cc2)NC(=O)c2ccc(CN)cc2)C1C (stereo partly shown) ?
Result: 8.5

Data provenance is patent US4895842A.
